biological target: human Claudin18.2 (human); experiment: cell-based or functional assay
quantityMeasured: CDC EC50 (µg/mL)
Write the number in µg/mL without appending the unit.

233D5E5 (antibody, V domains shown) VH: QAYLQQSGAELVRSGASVKMSCKASGYTFTSHNMHWVKQTPRQGLEWIGYIYPGNGDTNYNQKFKGKATLTADTSSSTAYMQISSLTSEDSAVYFCTRDYYGNSFAYWGQGTLVTVSA VL: DIVMTQSPSSLTEKAGERVSMSCKSSQSLFNSGNQKNYLTWYQQKPGQPPKLLIYWASTRESGVPDRFTGSGSGTDFTLTISSVQAEDLAVYYCQNAYWYPFTFGAGTKLELK	1.49
409G10G6 (antibody, V domains shown) VH: DVQLVESGGGLVQPGGSRKLSCAASGFTFSGFGMHWIRQTPEKGLEWVAYISSDSRPIYYADTVKGRFTISRDNPKNTLFLQMTSLRSEDTAMYFCGRFYYGNSFDHWGQGTLVTVSA VL: DIVMTQSPSFLTVTAGEKVTLSCRSSQSLLNSGNQRNYLTWYQQKPGQPPKLLIYWASTRESGVPDRFTGSGSGTDFTLTISSVQAEDRALYYCQNAYSFPLTFGTGTKLELR	4.7

Okay, now this binder:
Exercise: Could you share which CDC EC50 value was measured for 411G12G1 (antibody, V domains shown) VH: DVQLVESGGGLVQPGGSRKLSCAASGFTFSGFGMHWIRQAPEKGLEWVAYISSGSRPIYYADTVKGRFTISRDNPKNTLFLQMTSLRSEDTAMYFCARFYYGNSFDHWGQGTLVTVSA VL: DIVMTQSPSFLTVTAGEKVTMSCKSSQSLLNSGNQKNYLTWYQQKPGQPPKLLIYWASTRESGVPDRFTGSGSGTDFTLTISSVQAEDLAVYYCQNDYSFPLTFGAGTKLELK ?
Key: 9.56
